Catalogue of pIC50 readings, one per entry.
# System: human TRPV1 (Homo sapiens)
# Construct: using primers designed surrounding the complete hTRPV1 open reading frame; expressed in transfected cells; host or cells: CHO-K1 cells stably transfected with pcDNA3.1(-)-hVR1 plasmid
# Sequence (Q8NER1 whole entry): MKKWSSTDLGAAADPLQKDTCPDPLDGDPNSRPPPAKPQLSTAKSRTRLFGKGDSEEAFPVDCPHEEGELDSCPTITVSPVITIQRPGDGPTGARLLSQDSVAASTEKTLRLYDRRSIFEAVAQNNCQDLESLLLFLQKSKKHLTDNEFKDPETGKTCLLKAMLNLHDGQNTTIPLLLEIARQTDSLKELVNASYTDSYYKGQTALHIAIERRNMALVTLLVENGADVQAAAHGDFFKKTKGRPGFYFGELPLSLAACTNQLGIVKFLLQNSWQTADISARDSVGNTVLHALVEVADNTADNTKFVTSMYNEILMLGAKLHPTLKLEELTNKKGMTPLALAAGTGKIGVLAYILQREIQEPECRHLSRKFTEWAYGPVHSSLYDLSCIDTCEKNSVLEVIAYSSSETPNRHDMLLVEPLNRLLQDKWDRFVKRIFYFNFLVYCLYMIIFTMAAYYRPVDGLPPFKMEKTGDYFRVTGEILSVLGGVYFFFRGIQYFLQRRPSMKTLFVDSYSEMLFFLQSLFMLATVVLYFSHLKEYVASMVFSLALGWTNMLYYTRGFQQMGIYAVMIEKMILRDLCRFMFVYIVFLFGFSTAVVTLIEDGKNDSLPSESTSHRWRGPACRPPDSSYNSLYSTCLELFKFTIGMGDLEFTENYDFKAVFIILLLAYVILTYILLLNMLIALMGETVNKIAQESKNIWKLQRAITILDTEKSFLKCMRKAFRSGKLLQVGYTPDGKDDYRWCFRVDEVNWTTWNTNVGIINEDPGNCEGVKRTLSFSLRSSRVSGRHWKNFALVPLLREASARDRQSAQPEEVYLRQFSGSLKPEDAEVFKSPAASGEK
# Experiment: pH-based assay, Protocol 2 (TRPV1/CHO cells, Fura-2 AM, FDSS-3000, pH 5.0-5.1)
# Assay type: cell-based
# Condition Parameters: H2SO4 agonist, mean ± SEM, number of trials in parentheses, read-out: TRPV1 IC50 Potency, Human pH CHO (hpH-CHO)
Note on units: pIC50 is unitless, being -log10 of a concentration expressed in mol/L.

Molecule	Obs Value
O=C(Nc1ccc(C(F)(F)F)c(F)c1)N1CC=C(c2ncc(CO)cc2Cl)CC1	7.38
O=C(Nc1nc2ccc(F)cc2s1)N1CC=C(c2ncc(CO)cc2Cl)CC1	6.62
O=C(Nc1ccc(Cl)c(C(F)(F)F)c1)N1CCC(F)(c2ncc([C@H](O)CO)cc2Cl)CC1	7.53
O=C(Nc1ccc(C(F)(F)F)cc1)N1CCC(F)(c2ncccc2Cl)CC1	7.29
O=C(Nc1ccc(Cl)c(C(F)(F)F)c1)N1CCC(F)(c2ncc([C@@H](O)CO)cc2F)CC1	6.96
O=C(Nc1ccc(C(F)(F)F)c(Cl)c1)N1CC=C(c2ncc(CO)cc2Cl)CC1 [Compound S2]	7.50
COc1cc(NC(=O)N2CCC(F)(c3ncc([C@H](O)CO)cc3F)CC2)ccc1C(F)(F)F	7.40

Note: attention shifts to another entry.
(Q) For the molecule `O=C(Nc1ccc(OC(F)(F)F)c(Cl)c1)N1CCC(F)(c2ncc([C@H](O)CO)cc2Cl)CC1` , report pIC50.
(A) 8.24
